Origin of measurements: patent US20200399318A1

Target Of Assay: E. coli iPGM (Escherichia coli, UniProt P37689)
Sequence (P37689 whole entry, looked up): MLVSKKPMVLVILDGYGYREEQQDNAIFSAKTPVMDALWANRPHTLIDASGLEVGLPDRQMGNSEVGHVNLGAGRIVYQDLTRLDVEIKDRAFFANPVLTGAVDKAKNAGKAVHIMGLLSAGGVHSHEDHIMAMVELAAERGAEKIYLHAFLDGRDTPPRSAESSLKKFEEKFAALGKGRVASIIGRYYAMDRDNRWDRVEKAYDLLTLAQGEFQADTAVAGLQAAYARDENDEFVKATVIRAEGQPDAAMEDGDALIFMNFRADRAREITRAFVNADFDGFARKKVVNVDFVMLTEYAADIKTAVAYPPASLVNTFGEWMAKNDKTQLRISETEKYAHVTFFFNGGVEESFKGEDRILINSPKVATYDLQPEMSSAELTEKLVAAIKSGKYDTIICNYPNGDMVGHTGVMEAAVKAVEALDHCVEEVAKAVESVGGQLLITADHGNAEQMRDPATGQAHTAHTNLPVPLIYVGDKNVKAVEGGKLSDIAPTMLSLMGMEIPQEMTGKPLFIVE
Assay Details: biochemical
Settings: read-out: E. coli iPGM Max Inhibition
Value Type: Emax

State its Emax: `CC(C)C[C@H](NC(=O)[C@H](Cc1ccc(O)cc1)NC(=O)[C@@H]1CSCC(=O)N[C@H](Cc2ccc(O)cc2)C(=O)N[C@@H](CC(=O)O)C(=O)N[C@@H](Cc2ccc(O)cc2)C(=O)N2CCC[C@H]2C(=O)NCC(=O)N[C@@H](CC(=O)O)C(=O)N[C@@H](Cc2ccc(O)cc2)C(=O)N1)C(=O)N[C@@H](Cc1ccc(O)cc1)C(=O)NCC(=O)N[C@H](C(=O)N[C@@H](CS)C(N)=O)[C@@H](C)O`
99.2%

====

System: D. immitis iPGM
Format: biochemical, Dirofilaria immitis
Where a SMILES comes first, the peptide text is derived from it. Bridges are numbered along the chain shown (N, C = ends). [ ]: non-standard residue; d: D form.
Value Type: D. immitis iPGM Max Inhibition
Output: the number by itself.

Give me measured D. immitis iPGM Max Inhibition, please, for this compound: CC(C)C[C@@H]1NC(=O)[C@@H](Cc2ccc(O)cc2)NC(=O)CSC[C@@H](C(=O)N[C@@H](CO)C(=O)N[C@H](C(=O)N[C@@H](CS)C(=O)NCC(N)=O)[C@@H](C)O)NC(=O)[C@H](CC(N)=O)NC(=O)[C@@H]2CCCN2C(=O)[C@H](Cc2c[nH]c3ccccc23)NC(=O)[C@H](CC(=O)O)NC1=O [Bm-5] ({CH2CO}-[dY]LDWPNCSTCG-NH2; thioether N-7)
−87.1

====

Target Of Assay: E. coli iPGM (Escherichia coli, UniProt P37689)
Assay Details: biochemical
Where a SMILES comes first, the peptide text is derived from it. Bridges are numbered along the chain shown (N, C = ends). [ ]: non-standard residue; d: D form.
Collected E. coli iPGM PIC50, M values appear next to each entry.
Unit M implied. Number only.

Solved cases (2 shown):
CC(C)C[C@@H]1NC(=O)[C@@H](Cc2ccc(O)cc2)NC(=O)CSC[C@@H](C(=O)N[C@@H](CC(N)=O)C(=O)N[C@H](C(=O)N[C@@H](CS)C(=O)NCC(N)=O)[C@@H](C)O)NC(=O)[C@H](CC(N)=O)NC(=O)[C@@H]2CCCN2C(=O)[C@H](Cc2c[nH]c3ccccc23)NC(=O)[C@H](CCC(=O)O)NC1=O [Bm-4] ({CH2CO}-[dY]LEWPNCNTCG-NH2; thioether N-7) ... 5.56
CC[C@H](C)[C@@H]1NC(=O)[C@H](CCCNC(=N)N)NC(=O)[C@H](Cc2ccccc2)NC(=O)[C@@H]2CCCN2C(=O)[C@H](CC(N)=O)NC(=O)[C@H](C)NC(=O)[C@H](CC(C)C)NC(=O)[C@H]([C@@H](C)O)NC(=O)[C@H]([C@@H](C)CC)NC(=O)[C@H](Cc2ccc(O)cc2)NC(=O)CSC[C@@H](C(=O)NCC(N)=O)NC(=O)[C@H](Cc2c[nH]cn2)NC(=O)[C@H](CC(C)C)NC1=O [Ce-3] ({CH2CO}-YITLANPFRILHCG-NH2; thioether N-13) ... 6.27

# lookup: E. coli iPGM (Escherichia coli, UniProt P37689) E. coli iPGM PIC50, M, key = CC(C)C[C@@H]1NC(=O)[C@@H](Cc2ccc(O)cc2)NC(=O)CSC[C@@H](C(=O)N[C@@H](CO)C(=O)N[C@H](C(=O)N[C@@H](CS)C(=O)NCC(N)=O)[C@@H](C)O)NC(=O)[C@H](CC(N)=O)NC(=O)[C@@H]2CCCN2C(=O)[C@H](Cc2c[nH]c3ccccc23)NC(=O)[C@H](CC(=O)O)NC1=O [Bm-5] ({CH2CO}-[dY]LDWPNCSTCG-NH2; thioether N-7)
5.54
